Data origin: patent US20180230213A1

Each record here notes measured kon.
molecular target: T1, monomeric recombinant cynomologus monkey Notch3 extracellular domain (containing EGF like domains 1-12) … (cynomologus monkey); test: SPR BIAcore T100, antibody captured by anti-human IgG Fc, monomeric rcNotch3 analyte, 25 C
T1 construct: domain: EGF like domains 1-12; also called monomeric rcNotch3
All answers are understood in M⁻¹ s⁻¹, so give the number only.

Problem: Any idea what kon was measured for Hu4F11-77 (antibody, human IgG1, kappa, V domains shown, Humanized, human IgG1 kappa; Hv3-23 A28T S31N T62S heavy + Kv2D-29 N28Q kappa) VH: EVQLLESGGGLVQPGGSLRLSCAASGFTFSNYDMSWVRQAPGKGLEWVSYISRGGGSTYYPDSVKGRFTISRDNSKNTLYLQMNSLRAEDTAVYYCGRHATTAYWYFDVWGQGTMVTVSS VL: DVVMTQTPLSLSVTPGQPASISCRSSQSLVHTQGNTYLHWYLQKPGQSPQLLIYKVSNRFSGVPDRFSGSGSGTDFTLKISRVEAEDVGVYFCSQSTHVPWTFGQGTKVEIKR ?
Solution: 960000

Problem: Recorded kon of Hu4F11-69 (antibody, human IgG1, kappa, V domains shown, Humanized, human IgG1 kappa; Hv3-23 A28T S31N T62S heavy + Kv2D-29 N28H kappa) VH: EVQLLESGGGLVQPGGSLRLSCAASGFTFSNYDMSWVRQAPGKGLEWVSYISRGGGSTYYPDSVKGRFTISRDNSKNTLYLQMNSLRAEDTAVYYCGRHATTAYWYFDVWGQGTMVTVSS VL: DVVMTQTPLSLSVTPGQPASISCRSSQSLVHTHGNTYLHWYLQKPGQSPQLLIYKVSNRFSGVPDRFSGSGSGTDFTLKISRVEAEDVGVYFCSQSTHVPWTFGQGTKVEIKR , please.
Solution: 120000

Problem: Find the recorded kon belonging to Hu4F11-75 (antibody, human IgG1, kappa, V domains shown, Humanized, human IgG1 kappa; Hv3-23 A28T T62S heavy + Kv2D-29 N28Y kappa) VH: EVQLLESGGGLVQPGGSLRLSCAASGFTFSSYDMSWVRQAPGKGLEWVSYISRGGGSTYYPDSVKGRFTISRDNSKNTLYLQMNSLRAEDTAVYYCGRHATTAYWYFDVWGQGTMVTVSS VL: DVVMTQTPLSLSVTPGQPASISCRSSQSLVHTYGNTYLHWYLQKPGQSPQLLIYKVSNRFSGVPDRFSGSGSGTDFTLKISRVEAEDVGVYFCSQSTHVPWTFGQGTKVEIKR and report it.
Solution: 720000

Problem: Can you share its kon? I mean this binder: Hu4F11-76 (antibody, human IgG1, kappa, V domains shown, Humanized, human IgG1 kappa; Hv3-23 S31H T62S heavy + Kv2D-29 N28Y kappa) VH: EVQLLESGGGLVQPGGSLRLSCAASGFAFSHYDMSWVRQAPGKGLEWVSYISRGGGSTYYPDSVKGRFTISRDNSKNTLYLQMNSLRAEDTAVYYCGRHATTAYWYFDVWGQGTMVTVSS VL: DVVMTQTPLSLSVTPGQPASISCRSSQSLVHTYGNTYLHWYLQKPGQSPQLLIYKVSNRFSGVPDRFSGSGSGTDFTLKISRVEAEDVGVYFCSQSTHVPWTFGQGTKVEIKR
Solution: 780000

Consider now this further binder.
Problem: Item under review: Hu4F11-72 (antibody, human IgG1, kappa, V domains shown, Humanized, human IgG1 kappa; Hv3-23 S31H T62S heavy + Kv2D-29 N28H kappa) VH: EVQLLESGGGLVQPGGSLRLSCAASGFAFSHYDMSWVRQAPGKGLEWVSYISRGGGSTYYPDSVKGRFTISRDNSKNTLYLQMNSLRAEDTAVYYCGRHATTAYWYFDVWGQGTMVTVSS VL: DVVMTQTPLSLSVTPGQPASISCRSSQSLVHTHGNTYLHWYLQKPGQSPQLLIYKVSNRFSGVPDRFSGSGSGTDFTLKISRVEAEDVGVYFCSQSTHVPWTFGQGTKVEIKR . Reported kon?
Solution: 2.8e+06
